- TEST SYSTEM: full-length human RORγt (Homo sapiens (Human), UniProt P51449)
- Sequence (P51449 other isoform, or with tags, fused parts or gaps): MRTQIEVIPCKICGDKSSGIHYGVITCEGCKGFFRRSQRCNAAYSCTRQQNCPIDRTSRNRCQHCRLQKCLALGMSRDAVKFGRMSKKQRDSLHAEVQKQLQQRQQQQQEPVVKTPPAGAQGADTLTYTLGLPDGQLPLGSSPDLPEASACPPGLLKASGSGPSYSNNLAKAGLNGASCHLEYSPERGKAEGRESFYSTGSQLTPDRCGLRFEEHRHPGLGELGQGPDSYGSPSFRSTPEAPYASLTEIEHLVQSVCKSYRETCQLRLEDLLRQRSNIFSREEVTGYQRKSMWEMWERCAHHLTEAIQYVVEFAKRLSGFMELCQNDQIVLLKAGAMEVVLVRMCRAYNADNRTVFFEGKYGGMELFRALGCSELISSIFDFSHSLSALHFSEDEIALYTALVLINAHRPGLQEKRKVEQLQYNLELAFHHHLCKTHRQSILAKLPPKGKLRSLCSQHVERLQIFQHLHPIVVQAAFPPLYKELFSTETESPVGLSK
- TEST DETAILS: RORγt (full-length human) reporter assay, conditions A or B, HEK293T cells
- Assay type: cell-based
- RECORDED CONDITIONS: HEK-293T, read-out: RORγt (FL) Reporter Assay A or B, % inhibition @ 6 μM
- Procedure: RORγt (Full-Length Human) Reporter Assay: HEK293T cells were plated at 35,000 per well in 96-well plate in medium of DMEM with 10% FBS. […] Firefly luciferase luminescence was measured using a BMG Pherastar plate reader. […] Renilla luminescence was measured using a BMG Pherastar plate reader. […] IC50s were generated by plotting final Renilla normalized data against compound concentration and percent inhibition was calculated against DMSO control. […]
READOUT TYPE: inhibition at 6 µM (%)

>>> print(df.to_string())
                                     smiles        readout_type  unit_label  numeric_value
0  CCn1nc(C(=O)NC[C@]2(O)CC[C@@H](S(C)(=O)=O)CC2)c(C#N)c1-c1ccc(CC(C)(C)C(F)(F)F)cc1OC  inhibition at 6 µM           %            101
1  CCn1nc(C(=O)NC[C@]2(O)CC[C@@H](S(C)(=O)=O)CC2)c(Cl)c1-c1ccc(N[C@H](C)C(F)(F)F)cc1  inhibition at 6 µM           %             96
2  COc1cc(N[C@H](C)C(F)(F)F)ccc1-c1c(Cl)c(C(=O)NC[C@]2(O)CC[C@@H](S(C)(=O)=O)CC2)nn1CC(C)C  inhibition at 6 µM           %            108
3  CCn1nc(C(=O)NC[C@H]2CC[C@H](S(C)(=O)=O)CC2)c(C#N)c1-c1ccc(CCC(F)(F)F)cc1OC  inhibition at 6 µM           %             85
4  CCCn1nc(C(=O)NC[C@]2(O)CC[C@@H](S(C)(=O)=O)CC2)c(Cl)c1-c1ccc(N[C@H](C)C(F)(F)F)cc1OC  inhibition at 6 µM           %            105
